Biological target: T1, T2 mechanosensitive channel from Thermoplasma volcanium, tag free (Thermoplasma volcanium)
T1 construct: TVN0821, gene amplified from genomic DNA (DSM 4299 [GSS1*]); 297 amino acids per monomer; Cloned into pNIC28-Bsa4 (TEV site) and pET46 (Enterokinase site); In detergent (0.03 % DDM); also called T2 channel; tag free T2-channel; source: E. coli C43(DE3), purified (DDM solubilised, IMAC, tag cleavage, second IMAC, gel filtration); not shown: His-tag, N-terminal, cleaved
T1 chain: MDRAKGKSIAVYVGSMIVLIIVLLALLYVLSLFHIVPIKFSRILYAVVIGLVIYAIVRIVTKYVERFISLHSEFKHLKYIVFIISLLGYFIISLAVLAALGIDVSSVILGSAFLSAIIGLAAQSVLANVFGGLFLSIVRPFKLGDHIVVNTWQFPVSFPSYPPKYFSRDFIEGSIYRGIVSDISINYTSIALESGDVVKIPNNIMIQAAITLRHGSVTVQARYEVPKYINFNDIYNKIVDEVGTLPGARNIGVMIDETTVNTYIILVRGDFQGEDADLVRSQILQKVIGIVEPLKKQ
Experiment: SPR; BIAcore 3000, 25 °C, 20 mM sodium phosphate pH 7.4, 150 mM NaCl, 0.03 % DDM; T2 channel amine-coupled on CM5 (1500 - 2000 RU); nanobodies 0.35 - 86.1 nM injected in triplicates; global fit to a simple bimolecular model, KD = kd/ka
Conditions: both partners purified
MEASURED METRIC: koff (s⁻¹)
// return numeric value only (unit: s⁻¹, not printed)

Completed entries (count: 3):
BINDER	MEASURED METRIC	MEASURED
nanobody 12 (VHH, pHEN6 vector; also called Nb 12; CA-number 3394; source: E. coli WK6 periplasm, purified (IMAC, gel filtration); not shown: His-tag, C-terminal, kept) VHH: QVQLQESGGGLVQPGGSLRLSCVASGSIFSINAMGWYRQAPGKQRDLVAVITSRGSTNYADSVKGRFTISRDNAKNTTYLQMNSLKPEDTAVYYCNADLAAYYSGTYYDTLLYWGQGTQVTVSS	koff	0.0025
nanobody 20 (VHH, pHEN6 vector; also called Nb 20; CA-number 3403; source: E. coli WK6 periplasm, purified (IMAC, gel filtration); not shown: His-tag, C-terminal, kept) VHH: QVQLQESGGGLVQPGGSLRLSCAASGNIFGINSMDWYRQAPGKQRELVATITSGGSTNYGDSVKGRFTISRDNAKNTMYLQMNSLKPEDTAVYYCHAVLSTRGGYWGQGTQVTVSS	koff	0.0036
nanobody 3 (VHH, pHEN6 vector; also called Nb 3; CA-number 3382; source: E. coli WK6 periplasm, purified (IMAC, gel filtration); not shown: His-tag, C-terminal, kept) VHH: QVQLQESGGGLVQPGGSLRLSCAASGFTLDYYAIGWFRQTPGKEREGVSCISSSDDSTYYADSVKGRFTISRDNAKNTVYLQMNSLKPEDTAVYYCATGWACTLVAGTNGMDYWGKGTQVTVSS	koff	0.0091

Input line: Kindly indicate its recorded koff. Item: nanobody 19 (VHH, pHEN6 vector; also called Nb 19; CA-number 3402; source: E. coli WK6 periplasm, purified (IMAC, gel filtration); not shown: His-tag, C-terminal, kept) VHH: QVQLQESGGGLVQPGGSLRLSCAASGSISRLNHMGWYRQPPGKQRELVAVITSGGSTDYADSVKGRFTISSGNAKNTVYLQMNSLKTEDTAVYYCNAYSEFIRPYTLWGQGTQVTVSS
Output line: 0.0015

Input line: Kindly indicate its recorded koff. Item: nanobody 17 (VHH, pHEN6 vector; also called Nb 17; CA-number 3399; source: E. coli WK6 periplasm, purified (IMAC, gel filtration); not shown: His-tag, C-terminal, kept) VHH: QVQLQESGGGLVQPGGSLRLSCAASGSIFSINSMDWYRQAPGKQRELVATITSGGSTNYADSVKGRFTISRDNGKNTVYLQMNSLKPEDTAVYYCHAVVSTRGGYWGQGTQVTVSS
Output line: 0.00315
